Experimental Target: human cloned 5-HT6 receptors (Homo sapiens, UniProt P50406)
Construct: expressed in transfected cells; host or cells: Hela cells
Sequence (P50406 whole entry): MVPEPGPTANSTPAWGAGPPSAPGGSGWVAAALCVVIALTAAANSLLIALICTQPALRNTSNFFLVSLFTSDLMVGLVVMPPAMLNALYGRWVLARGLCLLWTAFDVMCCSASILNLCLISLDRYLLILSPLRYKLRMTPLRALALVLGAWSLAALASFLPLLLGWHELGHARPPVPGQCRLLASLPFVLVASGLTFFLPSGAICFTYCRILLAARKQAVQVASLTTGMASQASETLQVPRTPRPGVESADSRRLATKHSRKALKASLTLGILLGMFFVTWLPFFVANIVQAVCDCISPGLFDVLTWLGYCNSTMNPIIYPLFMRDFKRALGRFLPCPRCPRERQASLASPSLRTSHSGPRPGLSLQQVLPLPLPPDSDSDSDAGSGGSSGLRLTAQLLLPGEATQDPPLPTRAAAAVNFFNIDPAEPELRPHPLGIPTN
Experiment: 5-HT6 binding affinity, [3H]-LSD displacement on membranes of Hela cells expressing human cloned 5-HT6 receptors
Structures can show the parent of a compound that is named as a salt.
Measure Name: log10 of Ki (log10 of the value in nM)
Units before log transform: nM; reported quantity: Ki; transform: log10.

Example entries begin here.
> print(dat)
                                   molecule  value.reported
1  O=S(=O)(c1ccccc1Br)n1ccc2c(N3CCNCC3)cccc21 [Example 2]            0.30
2  O=S(=O)(c1ccccc1)n1ncc2c(N3CCNCC3)cccc21 [Example 58, hydrochloride]           -0.52
3  O=S(=O)(c1c(Cl)nc2sccn12)n1ccc2c(N3CCNCC3)cccc21 [Example 3]            0.00
4  O=S(=O)(c1ccccc1)n1ccc2c(N3CCN(C4=NCCN4)CC3)cccc21 [Example 14]            1.38
5  O=S(=O)(c1ccc(Br)s1)n1ncc2cc(N3CCNCC3)ccc21 [Example 81]            1.64

Then there is this molecule:
Ask: // query log10 of Ki value for entry Nc1ccc(S(=O)(=O)n2ccc3c(N4CCNCC4)cccc32)cc1 [Example 5]
Reply: 0.00
